# Assayed system: T1, recombinant protein containing hST2 extracellular domain with mouse antibody heavy chain Fc tag (hST2-ECD-mFc) (human)
# T1 construct: Used for SPR and for ELISA of chimeric and humanized antibodies; also called human ST2 antigen
# T1 chain: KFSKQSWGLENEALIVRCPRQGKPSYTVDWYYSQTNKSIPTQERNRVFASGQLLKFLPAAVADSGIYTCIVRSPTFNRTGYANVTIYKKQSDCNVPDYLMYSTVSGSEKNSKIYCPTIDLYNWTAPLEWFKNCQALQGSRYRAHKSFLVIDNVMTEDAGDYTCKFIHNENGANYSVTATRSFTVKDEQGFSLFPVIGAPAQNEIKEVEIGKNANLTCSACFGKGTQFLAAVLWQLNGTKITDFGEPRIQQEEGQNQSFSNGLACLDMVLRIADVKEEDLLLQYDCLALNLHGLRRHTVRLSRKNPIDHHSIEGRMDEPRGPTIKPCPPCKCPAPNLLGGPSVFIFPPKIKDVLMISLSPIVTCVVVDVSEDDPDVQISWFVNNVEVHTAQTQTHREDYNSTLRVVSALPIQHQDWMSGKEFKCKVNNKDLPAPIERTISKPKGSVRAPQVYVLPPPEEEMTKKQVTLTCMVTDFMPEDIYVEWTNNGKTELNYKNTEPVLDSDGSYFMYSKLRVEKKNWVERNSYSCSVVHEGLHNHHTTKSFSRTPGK
# Experiment: ELISA, plate coated with hST2-ECD-mFc

- Binder: "GSK3772847 (antibody STLM208 in CN104411333, prepared in-house) (antibody, human IgG2, kappa, V domains shown, Control anti-ST2 antibody) VH: EVQLLESGGGLVQPGGSLRLSCAASGFTFSIYDMIWVRQAPGKGLEWVSSIRGEGGGTYYADSVKGRFTISRDNSKNTLYLQMNSLRAEDTAVYYCARDPWSTEGSFFVLDYWGQGTLVTVSS VL: EIVLTQSPATLSLSPGERATLSCRASQSVDDDLAWYQQKPGQAPRLLIYDASNRATGIPARFSGSGSGTDFTLTISSLEPEDFAVYYCQQYITAPLTFGQGTKVEIKR"
  EC50 [nM]: 0.127
